Molecular target: Aldehyde dehydrogenase 1A1 (Homo sapiens)
Test: qHTS for Inhibitors of the Aldehyde Dehydrogenase Family (ALDH1A1) Confirmatory screens (AID 2061316); note: nearly all actives have a fitted effect of over 65% in size
Details: ALDH inhibition qHTS; series mostly up to 47.3 µM
Records with an inconclusive call do not appear. Calls of active or inactive are those of the source. Calls come from the whole dose curve; as a rule, active = well fitted inhibition curve with a large enough effect; inconclusive = small, poorly fitted or top-dose-only effect; inactive = no such curve, though single readings can be large or run the other way.
# valid calls are label 1 (active), label 0 (inactive); nothing else

Consider the following illustrative entries.
1. O=S(=O)(Nc1ccc(O)c2ncccc12)c1ccccc1F : label 1
2. C[C@@](Cc1ccccc1)(C(=O)O)N1C(=O)c2ccc(C(=O)O)cc2C1=O : label 0
3. O=C1c2ccccc2C(=O)N1c1ncccc1O : label 0
4. Cc1ncc(-c2ccnc(Nc3ccc(S(C)(=O)=O)cc3)n2)n1C(C)C : label 0
5. CC(=O)N1CCN(c2ccc(NCc3ccc(-c4cccc(Cl)c4)o3)cc2)CC1 : label 1
6. CC(=O)c1ccc(N2CCN(S(=O)(=O)c3ccc4c(c3)n(C)c(=O)n4C)CC2)cc1 : label 0
7. CC(NC(=O)CC(=O)O)c1nc2ccccc2c(=O)[nH]1 (centres undefined) : label 1
8. CC1(NC(=O)c2ccc(C#Cc3cccc(F)c3)cn2)COC1 : label 0
9. CCN(CC)CCOc1ccc(/C(=C(\Cl)c2ccccc2)c2ccccc2)cc1 : label 0
10. Cc1cc(=O)oc2c(C=O)c(O)ccc12 : label 1

### Prompt Dear colleague, could you share the recorded outcome for "COc1cc(NS(=O)(=O)c2ccc([N+](=O)[O-])cc2)c2ncccc2c1" when you have a moment?
### Response label 1

### Prompt Dear colleague, could you share the recorded outcome for "CC(C)c1c(-c2cnn(C(C)(C)C)c2)nc2c(C#N)c[nH]n2c1=O" when you have a moment?
### Response label 0

### Prompt Dear colleague, could you share the recorded outcome for "S=C(Nc1cc(Cl)ccn1)N1CCN(c2ccc(Cl)c(Cl)c2)CC1" when you have a moment?
### Response label 1

### Prompt Dear colleague, could you share the recorded outcome for "CCOC(=O)[C@H](CCc1ccccc1)N[C@@H](C)C(=O)N1C(=O)N(C)C[C@H]1C(=O)O" when you have a moment?
### Response label 0

### Prompt Dear colleague, could you share the recorded outcome for "COc1cccc(-c2ccc(NC(=O)C3=C(C(=O)O)CCC3)c(F)c2)c1" when you have a moment?
### Response label 1

### Prompt Dear colleague, could you share the recorded outcome for "CCCCNC(=O)[C@@H]1Cc2ccccc2N1C(=O)[C@@H](N)CC" when you have a moment?
### Response label 0

====

Assay: BET inhibitor-based combinations targeting novel dependencies in MECOM-rearranged (r) AML: MV-4-11 cell line (AID 2202233); note: nearly all actives have a fitted effect of over 45% in size
Conditions: MV-4-11 AML viability, CellTiter-Glo luminescence, 48 h; series mostly up to 46 µM
Inconclusive results are not listed. Active and inactive are the calls of the source. The call rests on the fitted dose curve; in most records, active means well fitted inhibition curve with a large enough effect; inconclusive means small, poorly fitted or top-dose-only effect; inactive means no such curve, though single readings can be large or run the other way.
# valid calls are active, inactive; nothing else

1. Cc1ccc(C(C)(O)c2nc3ccccc3s2)c(C)c1 (stereo not given) : active
2. Cc1cc(Nc2cc(CN3CCOCC3)c3nc(C)c(Cc4ccc(Cl)cc4F)n3n2)n[nH]1 : active
3. O=C(/C=C/C#Cc1cccc(NS(=O)(=O)c2ccccc2)c1)NO : active
4. CC(=O)O[C@]1(C(C)=O)CC[C@H]2[C@@H]3C[C@H](C)C4=CC(=O)CC[C@]4(C)[C@H]3CC[C@@]21C : active
5. O=C1N(c2ccccc2)c2ccccc2C1(Cc1ccncc1)Cc1ccncc1 : inactive
6. c1ccc2c(CCNc3ccc(Nc4ccncc4)cc3)c[nH]c2c1 : active
7. O=C(c1ccc(C(=O)N2CCC(N3CCCC3)CC2)c(Nc2ccccc2)c1)N1CCC(N2CCCC2)CC1 : active
8. CSc1cccc(Nc2ncc3cc(-c4c(Cl)cccc4Cl)c(=O)n(C)c3n2)c1 : active

### Prompt Dear colleague, could you share the recorded outcome for "CCOc1cc(N2CCC(O)CC2)ccc1Nc1ncc2c(n1)N(C)c1ccccc1C(=O)N2C" when you have a moment?
### Response active

### Prompt Dear colleague, could you share the recorded outcome for "COc1cc2c(cc1OC)CN(CCc1ccc(NC(=O)c3cc(OC)c(OC)cc3NC(=O)c3cnc4ccccc4c3)cc1)CC2" when you have a moment?
### Response inactive

====

Assay: BET inhibitor-based combinations targeting novel dependencies in MECOM-rearranged (r) AML: HNT-34 cell line (AID 2202234); note: nearly all actives have a fitted effect of over 35% in size
Conditions: HNT-34 AML viability, CellTiter-Glo luminescence, 48 h; series mostly up to 46 µM
Inconclusive results are not listed. Activity calls are given as the source filed them. Calls follow the shape of the dose curve; as a rule, active = well fitted inhibition curve with a large enough effect; inconclusive = small, poorly fitted or top-dose-only effect; inactive = no such curve, though single readings can be large or run the other way.
# valid calls are t = active, f = inactive; nothing else

1) CCCOc1ccc(C(=O)OCCN(CC)CC)cc1N : f
2) CNC1CCC(N(Cc2cccc(-c3ccncc3)c2)C(=O)c2sc3ccccc3c2Cl)CC1 (stereo not given) : t
3) CNC(=O)c1ccc2c(C(=Nc3cccc(CN(C)C)c3)c3ccccc3)c(O)[nH]c2c1 : t
4) COc1cccc2cc(-c3nc(C4CCC(C(=O)O)CC4)n4ncnc(N)c34)[nH]c12 (stereo not given) : t

Turning now to a further compound:
### Prompt Dear colleague, could you share the recorded outcome for "Cc1ccc(NC(=O)c2ccc(CN3CCNCC3)cc2)cc1Nc1nccc(-c2cccnc2)n1" when you have a moment?
### Response t

====

Target: Aldehyde dehydrogenase, mitochondrial (Homo sapiens)
Assay: qHTS for Inhibitors of the Aldehyde Dehydrogenase Family (ALDH2) Primary screen (AID 2061308);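 note: plate controls were vehicle for no effect and reference inhibitor for full effect; nearly all actives have a fitted effect of over 55% in size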
Details: ALDH2 enzyme inhibition qHTS, 1536-well; series mostly up to 56 µM
Results filed as inconclusive are left out. Active and inactive are the calls of the source. The call rests on the fitted dose curve; in most records, active means well fitted inhibition curve with a large enough effect; inconclusive means small, poorly fitted or top-dose-only effect; inactive means flat fitted curve, though single readings scatter.
Result Type: activity change, negative = inhibition

Completed entries (count: 5):
1. CCS(=O)(=O)N1CCN(c2ccc(Nc3ncc(C(N)=O)c(NC4CC4)n3)cc2)CC1 : inactive
2. Nc1ncc(-c2cccc(-c3nn4c(=O)cc(N5CCNCC5)nc4s3)c2)cn1 : inactive
3. C/C=C/C=C/C(=O)N1CC[C@]23c4ccccc4N[C@H]4N(C)c5cccc6c5[C@@]42CCN([C@H]6C2OC2(C)C)[C@H]13 (stereo not given in full) : inactive
4. N#Cc1cnc2c(Cl)cc(NCc3cn(CCN4CCCCCC4)nn3)cc2c1Nc1ccc(F)c(Cl)c1 : inactive
5. COc1cc2c(c(O)c1OC/C=C(\C)CC/C=C(/C)CCC=C(C)C)CN(C(CCC(=O)O)C(=O)O)C2=O (stereo not given) : inactive

### Prompt May I ask what activity change, negative = inhibition has been recorded for CC(C)CC(=O)OC1OC=C(CO[C@@H]2O[C@H](CO)[C@@H](O)[C@H](O)[C@H]2O)C2CC(O)C(O)(CO)C12 (stereo not given in full) ?
### Response inactive

### Prompt May I ask what activity change, negative = inhibition has been recorded for "Cc1cc(C(=O)N2Cc3cnn(C)c3Nc3ccccc32)ccc1CNC(=O)N1CCN(Cc2cc(O)cc(O)c2)CC1" ?
### Response inactive

### Prompt May I ask what activity change, negative = inhibition has been recorded for "CCC[C@H](N[C@@H](C)C(=O)N1[C@H](C(=O)O)C[C@@H]2CCCC[C@@H]21)C(=O)O" ?
### Response inactive

====

# Lookup of reported Potency keyed by entry
Molecular target: Cellular tumor antigen p53 (Homo sapiens) (UniProt P04637)
Sequence (P04637 whole entry, looked up): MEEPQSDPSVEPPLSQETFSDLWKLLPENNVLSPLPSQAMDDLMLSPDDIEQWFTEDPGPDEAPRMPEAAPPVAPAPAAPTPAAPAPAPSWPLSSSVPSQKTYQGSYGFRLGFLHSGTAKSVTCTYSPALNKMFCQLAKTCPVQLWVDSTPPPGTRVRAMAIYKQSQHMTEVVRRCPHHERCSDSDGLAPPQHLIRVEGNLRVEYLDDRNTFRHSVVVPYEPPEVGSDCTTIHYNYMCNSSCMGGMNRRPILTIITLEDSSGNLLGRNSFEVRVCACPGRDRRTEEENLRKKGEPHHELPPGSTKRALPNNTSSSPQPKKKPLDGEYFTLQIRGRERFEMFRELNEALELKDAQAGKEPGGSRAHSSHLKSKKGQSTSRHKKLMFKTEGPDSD
Assay: Primary qHTS for small molecule compounds that upregulate eGFP-tagged delta133p53alpha (in N-terminal) cells. (AID 2060322); note: nearly all actives have a fitted effect of over 75% in size; note: potency is the fitted concentration of half-maximal effect;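 for activation: cells pre-induced with doxycycline then dosed without doxycycline; 0% = DMSO vehicle and 100% = reference activator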
Conditions: NCI-H358 eGFP-delta133p53alpha fluorescence, 24 h
Results filed as inconclusive are left out. Active and inactive are the calls of the source. Calls come from the whole dose curve; as a rule, active = well fitted activation curve with a large enough effect; inconclusive = small, poorly fitted or top-dose-only effect; inactive = no such curve, though single readings can be large or run the other way.

Completed entries (count: 3):
1. CCN(CC)CCCCNc1nc2cc(Cl)c(Cl)cc2nc1-c1ccc(-c2cccs2)s1 : 6.85 µM (active)
2. CCN1CCC(n2cc(CNc3cc(Cl)c4ncc(C#N)c(Nc5ccc(F)c(Cl)c5)c4c3)nn2)CC1 : 16.9 µM (active)
3. Cn1cncc1C(N)(c1ccc(Cl)cc1)c1ccc2c(c1)c(-c1cccc(Cl)c1)cc(=O)n2C (configuration not stated) : 26.9 µM (active)

### Prompt For the record COc1cc(NC(C)CCCN)c2ncccc2c1 (configuration not stated) , what value of Potency is listed for Cellular tumor antigen p53 (Homo sapiens) (UniProt P04637)?
### Response 24.6 µM (active)

### Prompt For the record "O=C1NCCc2[nH]c(-c3ccncc3)cc21" , what value of Potency is listed for Cellular tumor antigen p53 (Homo sapiens) (UniProt P04637)?
### Response 7.69 µM (active)

### Prompt For the record "CCCCCN(CCC12CC3CC(CC(C3)C1)C2)C(=O)NCCCc1ccncc1" , what value of Potency is listed for Cellular tumor antigen p53 (Homo sapiens) (UniProt P04637)?
### Response 23.9 µM (active)

====

Biological target: Cellular tumor antigen p53 (Homo sapiens) (UniProt P04637)
Test: Primary qHTS for small molecule compounds that upregulate eGFP-tagged delta133p53alpha (in N-terminal) cells. (AID 2060322); note: nearly all actives have a fitted effect of over 75% in size;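 for activation: cells pre-induced with doxycycline then dosed without doxycycline; 0% = DMSO vehicle and 100% = reference activator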
Details: NCI-H358 eGFP-delta133p53alpha fluorescence, 24 h; hits give high values
From the text: Assay Development and Screening Technology National Center for Advancing Translational Sciences (NCATS), National Institute of Health (NIH), Rockville, Maryland Cellular senescence (CS) is one of the hallmarks of aging and age-related diseases. […] Here we report the development and validation of a cell-based quantitative high throughput screening (qHTS) assay in 1,536-well format. […]
Results filed as inconclusive are left out. Active and inactive are the calls of the source. Calls come from the whole dose curve; as a rule, active = well fitted activation curve with a large enough effect; inconclusive = small, poorly fitted or top-dose-only effect; inactive = no such curve, though single readings can be large or run the other way.
# Lookup of reported activation keyed by entry

### Prompt May I ask what activation has been recorded for "CC=C(C(=CC)c1ccc(O)cc1)c1ccc(O)cc1" ?
### Response -4.09% (inactive)

### Prompt May I ask what activation has been recorded for "O=C(O)CCc1cccc(O[C@@H]2O[C@H](CO)[C@@H](O)[C@H](O)[C@H]2O)c1O" ?
### Response -6.87% (inactive)

### Prompt May I ask what activation has been recorded for "O=C1CCc2ccc(OCCCCN3CCN(c4cccc(Cl)c4Cl)CC3)cc2N1" ?
### Response -4.19% (inactive)

### Prompt May I ask what activation has been recorded for CC1CCC2(C(=O)OC3OC(CO)C(O)C(O)C3O)CCC3(C)C(=CCC4C5(C)CC(O)C(O)C(C)(C(=O)O)C5CCC43C)C2C1(C)O (stereo unspecified) ?
### Response -18.3% (inactive)

### Prompt May I ask what activation has been recorded for "CCCCCCCCCCCCOCCOCCOCCOCCOCCOCCOCCOCCOCCO" ?
### Response 6.21% (inactive)

### Prompt May I ask what activation has been recorded for O=C(O)c1cccc(C(=O)CCC2OC(n3cnc4c(=O)[nH]cnc43)C(O)C2O)c1 (stereo unspecified) ?
### Response 15.3% (inactive)

### Prompt May I ask what activation has been recorded for "O=C1CC[C@H](C(=O)N2CCCCC2)N1" ?
### Response -6.33% (inactive)

### Prompt May I ask what activation has been recorded for "O=C(Nc1ccc(-n2nc(C(F)(F)F)cc2C(F)(F)F)cc1)c1ccncc1F" ?
### Response -5.25% (inactive)

### Prompt May I ask what activation has been recorded for "CC1(C)O[C@@H]2C[C@H]3[C@@H]4CCC5=CC(=O)C=C[C@]5(C)[C@@]4(F)[C@@H](O)C[C@]3(C)[C@]2(C(=O)CO)O1" ?
### Response -9.6% (inactive)

Cited source for all entries: PubChem BioAssay (NCATS)
